- system: Heat shock factor protein 1 (Homo sapiens) (UniProt Q00613)
- Sequence (Q00613 whole entry, looked up): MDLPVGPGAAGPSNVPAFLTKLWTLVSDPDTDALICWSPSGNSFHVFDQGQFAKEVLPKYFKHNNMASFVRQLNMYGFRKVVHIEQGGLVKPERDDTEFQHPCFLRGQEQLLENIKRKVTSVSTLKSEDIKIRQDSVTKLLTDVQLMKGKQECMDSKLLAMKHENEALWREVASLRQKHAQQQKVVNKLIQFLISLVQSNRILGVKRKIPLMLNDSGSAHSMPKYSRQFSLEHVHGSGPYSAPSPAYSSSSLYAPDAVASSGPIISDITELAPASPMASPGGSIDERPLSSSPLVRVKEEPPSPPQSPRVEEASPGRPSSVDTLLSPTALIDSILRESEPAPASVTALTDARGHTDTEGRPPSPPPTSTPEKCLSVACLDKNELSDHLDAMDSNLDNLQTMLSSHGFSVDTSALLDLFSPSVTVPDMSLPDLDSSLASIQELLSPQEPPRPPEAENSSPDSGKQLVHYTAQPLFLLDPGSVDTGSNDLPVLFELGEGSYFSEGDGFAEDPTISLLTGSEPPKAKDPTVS
- protocol_summary: ATG_HSE_CIS: Attagene CIS-FACTORIAL HepG2 Assay for human Heat Shock Transcription Factor 1 (HSE) (AID 2282953)
- applied_conditions: HepG2 HSE cis-reporter, Attagene RNA transcription; actives raise or lower the signal
Activity calls are given as the source filed them. Rule for the calls: active = hit-call score of the fitted dose curve at least 0.9, where 1 is the maximum; inactive = score below 0.9.
Respond only with the outcome that fits, drawn from class 1 = active, class 0 = inactive

Previously resolved entries follow.
OC1CCCCC1; class 0
CCOC(=O)CC(O)(CC(=O)OCC)C(=O)OCC; class 0
O=C1OC2(c3ccccc31)c1cc(Br)c(O)c(Br)c1Oc1c2cc(Br)c(O)c1Br; class 0

Inquiry: Write down the call the test reported for this compound. Item: `C=C(C)C(=O)OCCC(F)(F)C(F)(F)C(F)(F)C(F)(F)C(F)(F)C(F)(F)F`
Reply text: class 0

Inquiry: Write down the call the test reported for this compound. Item: OC1CCC(C2CCCCC2)CC1 (stereo not drawn)
Reply text: class 0

Inquiry: Write down the call the test reported for this compound. Item: `CC[C@H](c1ccc(O)cc1)[C@@H](CC)c1ccc(O)cc1`
Reply text: class 0

Inquiry: Write down the call the test reported for this compound. Item: `O=[N+]([O-])c1ccc(O)cc1`
Reply text: class 0

Inquiry: Write down the call the test reported for this compound. Item: CC(O)CO (stereo not drawn)
Reply text: class 0

Inquiry: Write down the call the test reported for this compound. Item: `CCCCCCC(=O)O`
Reply text: class 0

Inquiry: Write down the call the test reported for this compound. Item: `CC(C)CCCCCCOC(=O)CCCCC(=O)OCCCCCCC(C)C`
Reply text: class 0

Inquiry: Write down the call the test reported for this compound. Item: `CC(=O)NC1(c2cccc(F)c2)CCN(CC[C@@]2(c3ccc(Cl)c(Cl)c3)CN(c3ccccc3)C(=O)CO2)CC1`
Reply text: class 1

Inquiry: Write down the call the test reported for this compound. Item: `CC[C@H](C)[C@@H](C(=O)O)n1sc2ccccc2c1=O`
Reply text: class 0

Inquiry: Write down the call the test reported for this compound. Item: CCc1nn(C2CCCCC2)c2cc(C3(C#N)CCC(C(=O)O)CC3)ccc12 (stereo not drawn)
Reply text: class 0

###

- Read-out: CYP2E1 (gene 1571)
- protocol_summary: LTEA_HepaRG_CYP2E1: Life Technologies and Expression Analysis (LTEA) Assay for CYP2E1 using HepaRG (AID 2283485)
- applied_conditions: mRNA level, 48 h; actives raise or lower the signal
Activity calls are given as the source filed them. How the source made its calls: active means hit-call score of the fitted dose curve at least 0.9, where 1 is the maximum; inactive means score below 0.9.
Respond only with the outcome that fits, drawn from TRUE = active, FALSE = inactive

CCCCCCCC(=O)O; FALSE

Inquiry: Write down the call the test reported for this compound. Item: `CC(C)(C)CC(C)(C)c1ccc(O)c(-n2nc3ccccc3n2)c1`
Reply text: TRUE

Inquiry: Write down the call the test reported for this compound. Item: COCC(C)O (configuration not stated)
Reply text: FALSE

###

- Read-out: Matrix Metallopeptidase 1 (MMP1), MMP1 (gene 4312)
- protocol_summary: BSK_hDFCGF_MMP1: BioMAP Diversity Plus: hDFCGF Assay for Matrix Metallopeptidase 1 (MMP1) Biomarker Activity (AID 2283064)
- applied_conditions: primary human foreskin fibroblasts; actives raise or lower the signal
Calls of active or inactive are those of the source. How the source made its calls: active means hit-call score of the fitted dose curve at least 0.9, where 1 is the maximum; inactive means score below 0.9.
Respond only with the outcome that fits, drawn from 1 = active, -1 = inactive

FC(F)(I)C(F)(F)C(F)(F)C(F)(F)C(F)(F)C(F)(F)I; 1
NCC(F)(F)C(F)(F)C(F)(F)C(F)(F)C(F)(F)C(F)(F)C(F)(F)F; -1
CCOC(=O)CC(O)(CC(=O)OCC)C(=O)OCC; -1

Inquiry: Write down the call the test reported for this molecule. Item: `Cc1oc(-c2ccccc2)nc1CCOc1ccc(C[C@H](Nc2ccccc2C(=O)c2ccccc2)C(=O)O)cc1`
Reply text: 1

Inquiry: Write down the call the test reported for this molecule. Item: `CC(=O)NC1(c2cccc(F)c2)CCN(CC[C@@]2(c3ccc(Cl)c(Cl)c3)CN(c3ccccc3)C(=O)CO2)CC1`
Reply text: 1

Inquiry: Write down the call the test reported for this molecule. Item: `c1ccc2cc3c(ccc4ccccc43)cc2c1`
Reply text: -1

###

- Read-out: Interferon-gamma inducible Protein 10 (IP10), CXCL10 (gene 3627)
- protocol_summary: BSK_KF3CT_IP10: BioMAP Diversity Plus: KF3CT Assay for Interferon-gamma inducible Protein 10 (IP10) Biomarker Activity (AID 2283068)
- applied_conditions: primary human keratinocytes with fibroblasts; actives raise or lower the signal
Activity calls are given as the source filed them. How the source made its calls: active means hit-call score of the fitted dose curve at least 0.9, where 1 is the maximum; inactive means score below 0.9.
Respond only with the outcome that fits, drawn from true (active), false (inactive)

Previously resolved entries follow.
CC[C@H](C)[C@@H](C(=O)O)n1sc2ccccc2c1=O; false
Nc1cccc2c(N)cccc12; false
CCCCC(CC)COC(=O)CCCCC(=O)OCc1ccccc1 (stereo unspecified); false
CC1=C(/C=C/C(C)=C/C=C/C(C)=C/C(=O)O)C(C)(C)CCC1; true
CN(C)C=O; false
CCCCCCCCCCCCc1ccccc1S(=O)(=O)O; true
CCc1nn(C2CCCCC2)c2cc(C3(C#N)CCC(C(=O)O)CC3)ccc12 (stereo unspecified); true
c1ccc2cc3c(ccc4ccccc43)cc2c1; false

Inquiry: Write down the call the test reported for this molecule. Item: `CCCCCCC(=O)O`
Reply text: false

Inquiry: Write down the call the test reported for this molecule. Item: OC1CCC(C2CCCCC2)CC1 (stereo unspecified)
Reply text: false

Inquiry: Write down the call the test reported for this molecule. Item: `CCOC(=O)CC(O)(CC(=O)OCC)C(=O)OCC`
Reply text: false

###

- system: human CYP1A1, CYP1A1 (gene 1543) (UniProt P04798)
- Sequence (P04798 whole entry, looked up): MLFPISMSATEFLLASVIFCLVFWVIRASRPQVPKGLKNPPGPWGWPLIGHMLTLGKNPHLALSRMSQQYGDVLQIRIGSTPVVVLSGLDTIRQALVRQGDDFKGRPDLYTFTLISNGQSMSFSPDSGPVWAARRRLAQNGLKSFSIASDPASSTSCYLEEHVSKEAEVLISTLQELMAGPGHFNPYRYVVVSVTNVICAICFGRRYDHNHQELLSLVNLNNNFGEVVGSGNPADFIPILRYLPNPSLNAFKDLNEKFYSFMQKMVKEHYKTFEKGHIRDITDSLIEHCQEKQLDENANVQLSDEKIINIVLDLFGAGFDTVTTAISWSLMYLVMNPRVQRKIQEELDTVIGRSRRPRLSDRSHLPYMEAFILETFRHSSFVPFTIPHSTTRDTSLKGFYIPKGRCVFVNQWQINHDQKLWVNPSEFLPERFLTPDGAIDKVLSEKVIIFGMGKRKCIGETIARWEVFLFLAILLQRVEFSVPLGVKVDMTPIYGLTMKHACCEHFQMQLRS
- protocol_summary: NVS_ADME_hCYP1A1: NovaScreen (NVS) CYP450-related Enzyme Activity (ADME) Assay for human CYP1A1 (AID 2283100)
Records with an inconclusive call do not appear. Activity calls are given as the source filed them. Rule for the calls: active = hit-call score of the fitted dose curve at least 0.9, where 1 is the maximum; inconclusive = response in the unintended direction; inactive = score below 0.9.
measured_metric: AC50

// below: answered compounds
CCN(CC)CCNc1ccc(CNC=O)c2sc3ccc(OC)cc3c(=O)c12; 6.62 µM (active)
CCCOc1sc(C(=O)N2CCC(c3cc(CN)ccc3F)CC2)c(C)c1Br; inactive
Cc1cc(CCN2CCN(c3nsc4ccccc34)CC2)cc2c1NC(=O)CC2(C)C; inactive
CC1=C(/C=C/C(C)=C/C=C/C(C)=C/C(=O)O)C(C)(C)CCC1; 1.43 µM (active)
Oc1cc2ccccc2c2ccccc12; 5.31 µM (active)

Then there is this compound:
Inquiry: Could you share which AC50 value was measured for `O=C(OCCOCCOC(=O)c1ccccc1)c1ccccc1` ?
Reply text: inactive

###

- protocol_summary: ATG_BRE_CIS: Attagene CIS-FACTORIAL HepG2 Assay for human Bone Morphogenetic Protein (BMP) Response Element (BRE) (AID 2282933)
- applied_conditions: HepG2 BMP response element reporter, Attagene transcription factor profiling; actives raise or lower the signal
Calls of active or inactive are those of the source. Rule for the calls: active = hit-call score of the fitted dose curve at least 0.9, where 1 is the maximum; inactive = score below 0.9.
Respond only with the outcome that fits, drawn from TRUE for active, FALSE for inactive

O=c1c(-c2ccc(O)cc2)coc2cc(O)ccc12; FALSE
CCCCCCCCOC(=O)CCCCCCCCC(=O)OCCCCCCCC; FALSE
c1ccc2c(c1)ccc1ccccc12; FALSE

Inquiry: Write down the call the test reported for this compound. Item: `C=C(C)C(=O)OCCC(F)(F)C(F)(F)C(F)(F)C(F)(F)C(F)(F)C(F)(F)F`
Reply text: FALSE

Inquiry: Write down the call the test reported for this compound. Item: `CC(C)(C)c1ccc(O)c(C(C)(C)C)c1`
Reply text: FALSE

Inquiry: Write down the call the test reported for this compound. Item: `O=[N+]([O-])c1ccc(O)cc1`
Reply text: FALSE

Inquiry: Write down the call the test reported for this compound. Item: `COC(=O)CCCCC(=O)OC`
Reply text: FALSE

Inquiry: Write down the call the test reported for this compound. Item: `O=C(OCCOCCOC(=O)c1ccccc1)c1ccccc1`
Reply text: FALSE

Inquiry: Write down the call the test reported for this compound. Item: N#C[C@@H]1CC(F)(F)CN1C(=O)CNC1CC2CCC(C1)N2c1ncccn1 (stereo not given in full)
Reply text: FALSE

Inquiry: Write down the call the test reported for this compound. Item: `NCC(F)(F)C(F)(F)C(F)(F)C(F)(F)C(F)(F)C(F)(F)C(F)(F)F`
Reply text: FALSE

Inquiry: Write down the call the test reported for this compound. Item: `CCCCOCCO`
Reply text: FALSE

###

- system: Cellular tumor antigen p53 (Homo sapiens) (UniProt P04637)
- Sequence (P04637 whole entry, looked up): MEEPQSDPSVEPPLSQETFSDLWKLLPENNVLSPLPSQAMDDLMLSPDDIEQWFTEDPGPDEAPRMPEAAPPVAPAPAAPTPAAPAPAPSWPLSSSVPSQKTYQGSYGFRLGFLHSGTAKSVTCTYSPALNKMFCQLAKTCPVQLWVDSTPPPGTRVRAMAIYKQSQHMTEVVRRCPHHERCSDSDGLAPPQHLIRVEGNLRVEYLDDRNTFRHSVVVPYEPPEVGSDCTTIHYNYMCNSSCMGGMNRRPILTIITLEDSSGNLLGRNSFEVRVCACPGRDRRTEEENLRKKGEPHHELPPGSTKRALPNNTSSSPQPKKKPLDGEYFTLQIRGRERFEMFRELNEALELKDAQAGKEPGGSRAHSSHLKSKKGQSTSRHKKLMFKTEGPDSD
- protocol_summary: TOX21_p53_BLA_p3_ratio: Tox21 HCT-116 p53 Agonism Beta-lactamase Assay, Ratio, Phase 3 (AID 2283596)
Results filed as inconclusive are left out. Calls of active or inactive are those of the source. The calls were made as follows: active = hit-call score of the fitted dose curve at least 0.9, where 1 is the maximum; inconclusive = response in the unintended direction; inactive = score below 0.9.
Respond only with the outcome that fits, drawn from Y = active, N = inactive

Nc1cccc2c(N)cccc12; N
Cc1oc(-c2ccccc2)nc1CCOc1ccc(C[C@H](Nc2ccccc2C(=O)c2ccccc2)C(=O)O)cc1; Y
CC(=O)CC(C)(C)O; N

For the next question, use this molecule.
Inquiry: Write down the call the test reported for this molecule. Item: `Oc1cccc(O)c1`
Reply text: N

These entries and their values trace back to PubChem BioAssay (EPA / NIEHS).
